Each recorded value in this set is attributed to ChEMBL document CHEMBL1159154.

- Species: Homo sapiens
- Method Description: Concentration required for inhibitory activity against human PMNLs chemotaxis
- Assay type: functional, organism-based
- Assay Conditions: PMNL
Measurement Name: IC50 (µM)

>  <Molecule>
CCc1cc(C(C)=O)c(O)cc1OCc1cccc(C(=O)NCCO)n1

>  <IC50 (µM)>
15

$$$$
>  <Molecule>
CCc1cc(C(C)=O)c(O)cc1OCc1cccc(C(=O)N(CC)CCC(=O)O)n1

>  <IC50 (µM)>
0.3

$$$$
>  <Molecule>
CCc1cc(C(C)=O)c(O)cc1OCc1nccc(C(=O)Nc2nc(CC(=O)O)cs2)n1

>  <IC50 (µM)>
3

$$$$
>  <Molecule>
CCc1cc(C(C)=O)c(O)cc1OCc1cccc(C(=O)Nc2cccc(CC(=O)O)[n+]2[O-])n1

>  <IC50 (µM)>
0.02

$$$$

1. CCc1cc(C(C)=O)c(O)cc1OCc1cccc(C(=O)N(CC)CCO)n1
2. CCc1cc(C(C)=O)c(O)cc1OCc1cccc(C(=O)NCC(=O)O)n1
3. CCc1cc(C(C)=O)c(O)cc1OCc1ccc(C(=O)Nc2nc(CC(=O)O)cs2)cn1
4. CCCc1c(OCCCOc2ccc(C(C)=O)c(OC)c2CCC)ccc2c1OC(C(=O)O)CC2 (stereo not given)
5. CCc1cc(C(C)=O)c(O)cc1OCc1cccc(C(=O)N[C@@H](CO)C(=O)O)n1
Asked: Task for the reader: rank each entry by its IC50, from the minimum upward. List each label, following the requested order.
Given back: 5, 3, 1, 4, 2
